Each entry below carries its recorded Activity.
Test system: SW-620
assayText: Toxicity in athymic mouse xenografted with human SW620 cells assessed as serum creatine kinase level at 100 mg/kg administered as injection every other day for 15 days measured post last dose by ELISA (reference value: 1.94 +/- 1.04 U/L)
conditionDescription: in vivo, 360 h
experimentalEndpoint: Activity (U/L)

[[record]]
inputsmiles = "CCCCCCCCCCCCCCNC(=O)[C@@H](NS(=O)(=O)c1ccc2ccccc2c1)[C@@H](C)O"
experimentalendpoint = "Activity"
assayvalue = 2.63

[[record]]
inputsmiles = "CCCCCCCCCCCCCCNC(=O)[C@@H](NC(=O)Cc1c[nH]c2ccccc12)[C@@H](C)O"
experimentalendpoint = "Activity"
assayvalue = 2.44

[[record]]
inputsmiles = "CCCCCCCCCCCCCCNC(=O)[C@@H](N)[C@@H](C)O"
experimentalendpoint = "Activity"
assayvalue = 2.98

[[record]]
inputsmiles = "CCCCCCCCCCCCCCNC(=O)[C@@H](NS(=O)(=O)c1ccc(C)cc1)[C@@H](C)O"
experimentalendpoint = "Activity"
assayvalue = 2.32


###

Test system: SW-620
assayText: Induction of apoptosis in human SW620 cells assessed as XIAP protein level at 20 uM measured after 48 hrs by Western blot analysis relative to beta-actin (reference value: 1)
Assay type: functional
experimentalEndpoint: fold change (FC)

[[record]]
inputsmiles = "CCCCCCCCCCCCCCNC(=O)[C@@H](NS(=O)(=O)c1ccc2ccccc2c1)[C@@H](C)O"
experimentalendpoint = "fold change (FC)"
assayvalue = 0.93

[[record]]
inputsmiles = "CCCCCCCCCCCCCCNC(=O)[C@@H](NS(=O)(=O)c1ccc(C)cc1)[C@@H](C)O"
experimentalendpoint = "fold change (FC)"
assayvalue = 0.94

[[record]]
inputsmiles = "CCCCCCCCCCCCCCNC(=O)[C@@H](N)[C@@H](C)O"
experimentalendpoint = "fold change (FC)"
assayvalue = 0.15

[[record]]
inputsmiles = "CCCCCCCCCCCCCCNC(=O)[C@@H](NC(=O)Cc1c[nH]c2ccccc12)[C@@H](C)O"
experimentalendpoint = "fold change (FC)"
assayvalue = 0.06


###

Tested on: SW-620
assayText: Induction of apoptosis in human SW620 cells assessed as XIAP protein level at 10 uM measured after 48 hrs by Western blot analysis relative to beta-actin (reference value: 1)
Assay type: functional
experimentalEndpoint: fold change (FC)

[[record]]
inputsmiles = "CCCCCCCCCCCCCCNC(=O)[C@@H](NS(=O)(=O)c1ccc2ccccc2c1)[C@@H](C)O"
experimentalendpoint = "fold change (FC)"
assayvalue = 1.21

[[record]]
inputsmiles = "CCCCCCCCCCCCCCNC(=O)[C@@H](N)[C@@H](C)O"
experimentalendpoint = "fold change (FC)"
assayvalue = 1.22

[[record]]
inputsmiles = "CCCCCCCCCCCCCCNC(=O)[C@@H](NC(=O)Cc1c[nH]c2ccccc12)[C@@H](C)O"
experimentalendpoint = "fold change (FC)"
assayvalue = 1.03

[[record]]
inputsmiles = "CCCCCCCCCCCCCCNC(=O)[C@@H](NS(=O)(=O)c1ccc(C)cc1)[C@@H](C)O"
experimentalendpoint = "fold change (FC)"
assayvalue = 1.06

